Values from patent US8828908B2

Tested on: Echinochloa crus-galli (ECHCG)
Experiment: Example B post-emergence herbicidal greenhouse test
Format: in vivo
Conditions: 360 h, evaluated after 15 days, 100=total damage to plant, 0=no damage
ATTRIBUTE_MEASURED: pest or weed control at 125 g/ha (%)
# value in %; strip the unit string

pest or weed control at 125 g/ha for CCc1cc(-c2ccc(Cl)cc2)cc(CC)c1C1=C(O)[C@H]2CC[C@H](C2)C1=O ?
100

pest or weed control at 125 g/ha for CCc1ccc(-c2ccc(Cl)cc2)cc1C1=C(O)[C@H]2C=C[C@H](CC2)C1=O (single isomer, unassigned) ?
100

pest or weed control at 125 g/ha for Cc1ccc(-c2ccc(Cl)c(Cl)c2)cc1C1=C(O)[C@H]2CC[C@H](C2)C1=O (single isomer, unassigned) ?
0

pest or weed control at 125 g/ha for CCc1ccc(-c2ccc(Cl)cc2C)cc1C1=C(O)[C@H]2CC[C@H](C2)C1=O (single isomer, unassigned) ?
100

pest or weed control at 125 g/ha for CCc1ccc(-c2ccc(Cl)cc2Cl)cc1C1=C(O)[C@H]2CC[C@H](C2)C1=O ?
100

pest or weed control at 125 g/ha for Cc1cc(-c2ccccc2)cc(C)c1C1=C(OC(=O)C(C)(C)C)C2CCC(C2)C1=O (stereo not shown) [Compound P2] ?
60

pest or weed control at 125 g/ha for CCc1ccc(-c2ccc(Cl)cc2Cl)cc1C1=C(OC(C)=O)[C@H]2CC[C@H](C2)C1=O (single isomer, unassigned) ?
100

====

I'd be grateful if you could share measured pest or weed control at 250 g/ha for these entries.
System: Echinochloa crus-galli (ECHCG)
Assay: Example A pre-emergence herbicidal glasshouse test
Assay type: in vivo
Conditions: 312 h, Rate 250 g/ha, evaluated after 13 days, 100=total damage to plant, 0=no damage to plant
# value in %; strip the unit string

pest or weed control at 250 g/ha for CCc1ccc(-c2ccc(F)c(Cl)c2)cc1C1=C(O)[C@H]2CC[C@H](C2)C1=O (single isomer, unassigned) ?
100

pest or weed control at 250 g/ha for CCc1ccc(-c2ccc(Cl)c(C)c2)cc1C1=C(O)[C@H]2CC[C@H](C2)C1=O ?
100

pest or weed control at 250 g/ha for CCc1ccc(-c2ccc(Cl)c(C#N)c2)cc1C1=C(O)[C@H]2CC[C@H](C2)C1=O (single isomer, unassigned) ?
70

pest or weed control at 250 g/ha for Cc1ccc(-c2ccc(Cl)nc2)cc1C1=C(O)[C@H]2CC[C@H](C2)C1=O (single isomer, unassigned) ?
50

pest or weed control at 250 g/ha for CCc1ccc(-c2cnc(Cl)cc2C)cc1C1=C(O)[C@H]2CC[C@H](C2)C1=O (single isomer, unassigned) ?
0

pest or weed control at 250 g/ha for CCc1ccc(-c2ccc(Cl)cc2F)cc1C1=C(O)[C@H]2C=C[C@H](CC2)C1=O ?
50

pest or weed control at 250 g/ha for CCc1ccc(-c2ccc(Cl)cc2)cc1C1=C(O)[C@H]2C=C[C@H](CC2)C1=O (single isomer, unassigned) ?
70

pest or weed control at 250 g/ha for CCc1ccc(-c2cc(Cl)ccc2OC)cc1C1=C(O)[C@H]2CC[C@H](C2)C1=O (single isomer, unassigned) ?
0

pest or weed control at 250 g/ha for Cc1ccc(-c2ccc(F)cc2)cc1C1=C(O)[C@H]2CC[C@H](C2)C1=O (single isomer, unassigned) ?
50

pest or weed control at 250 g/ha for CCc1cc(-c2ccc(Cl)cc2)ccc1C1=C(O)[C@H]2CC[C@H](C2)C1=O ?
100

pest or weed control at 250 g/ha for CCc1ccc(-c2ccc(C)c(C3=C(O)[C@H]4CC[C@H](C4)C3=O)c2)cc1 (single isomer, unassigned) ?
0

pest or weed control at 250 g/ha for CCc1ccc(-c2cccc(Cl)c2)cc1C1=C(O)[C@H]2CC[C@H](C2)C1=O (single isomer, unassigned) ?
60

pest or weed control at 250 g/ha for Cc1ccc(-c2ccc(C)c(C3=C(O)[C@H]4CC[C@H](C4)C3=O)c2)cc1Cl (single isomer, unassigned) ?
30
